Assign nuclear beta-catenin stimulation to each entry below.
- PROCEDURE_SUMMARY: stimulators of nuclear beta-catenin in C2C12, primary screen, imaging, WNT3A-conditioned medium, mouse C2C12, NPC library (AID 1117326); also: reference of the scale not given here
- MEASUREMENT_PARAMETERS: stimulation, at 2 µM, stronger effect = higher value
// units = %; emit number, no label

Bench note: what nuclear beta-catenin stimulation did Clc1ccc(C(Cn2ccnc2)OCc2ccsc2Cl)c(Cl)c1 (stereo not given) show?
0.7

For the compound O=C(O)Cc1sc(-c2ccccc2)nc1-c1ccc(Cl)cc1 , what nuclear beta-catenin stimulation is on record?
-0.1

Data request, read-out nuclear beta-catenin stimulation, for COc1ccccc1N1CCN(CCCCNC(=O)c2ccc(-c3ccc(C(C)=O)cc3)cc2)CC1
9.2

Param item = CCOC(=O)[C@H](CCc1ccccc1)N[C@@H](C)C(=O)N1C(=O)N(C)C[C@H]1C(=O)O ; retrieve measured nuclear beta-catenin stimulation.
-1.6

Sample CN1CCN(CCCN2c3ccccc3Sc3ccc(S(=O)(=O)N(C)C)cc32)CC1 — what was its nuclear beta-catenin stimulation?
0.3

Consider the compound CC1(C)Oc2ccc(C#N)cc2[C@@H](N2CCCC2=O)[C@@H]1O and give its measured nuclear beta-catenin stimulation.
0.1

Need nuclear beta-catenin stimulation, item CCCCOc1cc(C(=O)OCCN(CC)CC)ccc1N
3.9

Fill in: nuclear beta-catenin stimulation of NC(=O)N[C@@H](CCC(=O)O)C(=O)O is ___
-1

# query: nuclear beta-catenin stimulation of entry O=c1[nH]c(=O)n([C@H]2C[C@H](O)[C@@H](CO)O2)cc1I
0.3

Field request: nuclear beta-catenin stimulation | item: C[C@H](O)C(=O)Nc1c(I)c(C(=O)NC(CO)CO)c(I)c(C(=O)NC(CO)CO)c1I
2.4

Data origin, for the record: PubChem BioAssay
